Molecular target: GST-tagged KRAS-G12D (2-169) (Homo sapiens, UniProt P01116, G12D)
Sequence (P01116 2-169 isoform P01116-2 G12D): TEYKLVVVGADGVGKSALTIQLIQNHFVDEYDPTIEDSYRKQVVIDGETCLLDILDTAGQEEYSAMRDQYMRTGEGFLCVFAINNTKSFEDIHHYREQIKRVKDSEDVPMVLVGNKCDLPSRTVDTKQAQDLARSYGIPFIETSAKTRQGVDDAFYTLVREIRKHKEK
Experiment: Nucleotide exchange assay (NEA), SOS-mediated, HTRF, KRAS G12D
Type: biochemical
Conditions: Table 4; IC50 extracted at 30 min; 20 nM SOScat; read-out: NEA G12D IC50
Source text: This activity is tightly regulated by GTPase activating proteins (GAPs) and guanine nucleotide exchange factors (GEFs). […] Homogenous time resolved fluorescence (HTRF) was used to detect SOS-mediated binding of a fluorescent GTP analog, GTP-DY-647P1 (Jena Biosciences NU-820-647P1) to GST-tagged KRAS-G12D (2-169) or to GST-tagged KRAS-G12V (2-169, Reaction Biology, MSC-11-540). […]
pIC50: −log10 of the molar value.
result type: pIC50

# compound, result
data = [
    ("CN(Cc1nsnc1N)c1nc(OC[C@@]23CCCN2C[C@H](F)C3)nc(N2CC3(CCc4sc(N)c(C#N)c43)C2)n1", "7.00 to 8.00"),
    ("N#CCN(Cc1c[nH]nn1)c1nc(OC[C@@]23CCCN2C[C@H](F)C3)nc(N2CC3(C2)SCc2sc(N)c(C#N)c23)n1", "> 8.00"),
    ("CC1(O)CC(F)CN(c2nc(OC[C@@]34CCCN3C[C@H](F)C4)nc(N3CC4(CCc5sc(N)c(C#N)c54)C3)n2)C1 (stereo partly shown)", "> 8.00"),
    ("CN(C)CC1(COc2nc(N3CCOCC(C)(O)C3)nc(N3CC4(C3)SCc3sc(N)c(C#N)c34)n2)CC1(F)F (stereo not shown)", "> 8.00"),
    ("N#Cc1c(N)sc2c1C1(CN(c3nc(OCC4(CN5CCOCC5)CC4)nc(N4CCNC[C@@H]4CO)n3)C1)SC2", "> 8.00"),
    ("CCN(c1nc(OC[C@@]23CCCN2C[C@H](F)C3)nc(N2CC3(C2)SCc2sc(N)c(C#N)c23)n1)[C@H](C)C#N", "> 8.00"),
]

Alright, here's another compound for you.
-- ask What pIC50 appears in the records for this compound with GST-tagged KRAS-G12D (2-169) (Homo sapiens, UniProt P01116, G12D)? N#Cc1c(N)sc2c1C1(CCC2)CN(c2nc(OC[C@@]34CCCN3C[C@H](F)C4)nc(N3CCCC(C#N)CC3)n2)C1 (stereo partly shown)
-- reply 7.00 to 8.00
